- assay: yeast display, Sf9 membrane polyspecificity reagent, FACS + sequencing; frameworks hold sequencing errors

chain | polyreactivity (PSR sort gate)
QVQLVESGGGLVQAGGSLRLSCAASGFIFRKYAMGWFRQAPGKERELVAAISRGGGSTYYADSVKGRFTISRDNAKNTVYLQMNSLKPEDTAVYYCAVGIVQRDSRYYYWGQGTQVTVSS | high polyreactivity
QDQLVESGGGLVQAGGSLRLSCAASGLTLKENVMGWYRQAPGKERELFAAISTGASTYYADSVKGRFTISRDNAKNTVYLQMNSLKPEDTAVYYCAKRVTPWYGYWGQGTQVTVSS | high polyreactivity

* * *

- assay: yeast display, Sf9 membrane polyspecificity reagent, FACS + sequencing; frameworks hold sequencing errors

chain | polyreactivity (PSR sort gate)
QVQHVESGGGLVQAGGSLRLSCAASGRTFDWYAMGRYRQAPGKEMELVAAISSGGSTYYADSVKGRFTISRDNAKNTVYLQMNSLKPEDTAVYYCAAEWHYIYAYDYWGQGTQVTVSS | low polyreactivity
QDQLVESGGGLDQAGCTLRLSCAASVGTFRYYAMGWYRQAPGKERELVASISSGGSTNYADSVKGRFTISRDNAKNTVYLQMNSLKPEDTAVYYCNADPRRPVTSYDYWGQGTQVTVSS | low polyreactivity

* * *

- assay: yeast display, Sf9 membrane polyspecificity reagent, FACS + sequencing; frameworks hold sequencing errors
reported.metric: polyreactivity (PSR sort gate)

Sample answers from the record:
chain | polyreactivity (PSR sort gate)
QVQIVESGGGLVQAGGSLRISCAASGRTFSWNPMGWYRQAPGKERELVAGITGRGRSTYYADSVKGRFTISRDNAKLTVYLQMNSLTPEDTAVYYCAADSYRSSSPYGYWGQGTQVTVSS | high polyreactivity
QVQLVESGGGLVQAGGSLRLCCAASGNIFAYYAMGWYRQPPAKERELVAGISRRGGNTYYADSVKGRFTISRDNAKNTVYLQMNSLKPEDTAVYYCAAITYSGQRFDYWGQGTQVTVSS | high polyreactivity
QVQLVESGGGLFHAGGSLRLICAASGTTFKYYAMGSYRQAPAIEREFVAAISTRTGNTYYADSVKGRFTISRDNAKNTVYLQMNSLKPEDTAVYYCAARPRQGRGYDFYYWGQGTQVTVSS | high polyreactivity
QVQLVESGGGLEQAGGSLRISCAASVSTVRFNAMGWYIQEPGKERQLVAVIRWRGGTTYYADSVKGRFTISRDNAKNTVYLQMNSLKPEDPAVYYCNADYWFSYTWHGSYTVGYWGQGTQVTVSS | high polyreactivity
QVQRVESGGGIVQAGGSLRLSCAASRRIFPYYALGWYRQSPGKERELVAAISQSDGSTYYADSVKGRFTISRDNAKNTVYLQMNSLKPEDTAVYYWAKRQASYTKHRKGRGDYWGQGTQVTVSS | low polyreactivity

Data point: QVQLVESGGGLVQAGGSLSLSCAASGRIYNYAMGWYRQAPGKERELVAAITGRGGSTYYADSVKGRFTISRDNAKNTVYLQMNSLKPEDTAVYYCARAGGPRHDWGQGTQVTVSS ; polyreactivity (PSR sort gate) = high polyreactivity

Data point: QVQLVESGGGLVQAGGSLRLSCPASGRTFSSYAMGWYRPAPGKERELVAAISRRGGSTYYADSVKGRFTISRDNAKNTVYLKMNSLKPEDTAVYYCAADVYKQYGYYYWGQGSQVTVSS ; polyreactivity (PSR sort gate) = high polyreactivity

Data point: QVQLVESGGGLVQAGGSLRLSCAASGRTFVLNAMGWYRPAPGKERELVAAITLGGGSTYADSVKGRFTISRDNAKNTVYLQMNSLKPEDTAVYYCAADFHYPAFEYWGQGTQVTVSS ; polyreactivity (PSR sort gate) = low polyreactivity

Data point: QVQLVESGGGLLQAGGSLRLSCAASGSTFRIYAMGWYRQAPGKERELVAAIRRRGASTYYADSVKGRFTISRDNAKNTVYLQMNSLKQEDTAVYYCAASYLWDRVPGRGIHDYWGQGTQVTVSS ; polyreactivity (PSR sort gate) = high polyreactivity

Data point: QVQLVESGGGLVQAGGSLRLSCAASGRNFWDYAMGWYRQAPGKERELVAGISYSGGSTSYADSVKGRFTISRDNAKNTVYLQMNSLKPEDTAVYYCAAGPSGTFFRDYDYWGQGTQVTVSS ; polyreactivity (PSR sort gate) = low polyreactivity

Data point: QVQLVESGGGLVQAGGSLRLSCAASGRTFWAYAMGWYRQAPGKERELVAAISVSGGRTYYADSVKGRFTISRDNAKYTVYLQMNSLKPEDSAVYYCNKRYLKSYQYYWGQGSQVTVSS ; polyreactivity (PSR sort gate) = high polyreactivity

Data point: QVQLVESGGGLVQAGGSLRLSCAASGLTFFGYTMGWYRQAPGKEREFVADITWSGGSTYYADSVKGRFTISRDNAKNTVYLQMNSLKPEVTAVYYCAVAPPNWDPFVDDTYLMDYWGQGTQVTLSS ; polyreactivity (PSR sort gate) = low polyreactivity

* * *

- assay: yeast display, Sf9 membrane polyspecificity reagent, FACS + sequencing; frameworks hold sequencing errors
reported.metric: polyreactivity (PSR sort gate)

Sample answers from the record:
chain | polyreactivity (PSR sort gate)
QVQLVESGGGLVQAGGSLRLTCAASGSIFYRNAMGWYRQAPGKERELVAAISTDGSTNYADSVKGRFTISRDNAKNTVYLHMNSLIPEDTAVSYCAAPWTQILDYWGQGTQVTVSS | low polyreactivity
QVQLVESGGGLVQAGGSLRLSCAASGFIFPNKAMGWYRQAPGKERELVARISYGGGDTHYADSVKGRFTISRDNAKNTVYLQMNSLKPEDTAVYYCSYYYWGQGTQVTVSS | low polyreactivity
QVQLVESGGGLVQSGGSLRLSSAAYGFIFPGNAMGWSRQAPGKEREMVAAISNSGSRTYYADSVKGRFTISRDHAKNTVYLQMNSLKPEDTAVYYCNADVHNRGWPYDYWGQGTQVTVSS | low polyreactivity
QVQLVESGGGLVQAGRSLRLICAASGSTFKRYAMGWYRQAPGKERELVAAITWTGGRTYYADSVKGRFTISRDNANYTVYLQMNSLKPEDTAVYYCAADDPHTAYGYWGQGTQVTVSS | high polyreactivity

With those in mind, consider the next sequence.
Data point: QVQLVESGGGLVQAGGSLRLSCAASGRTFRYYAMGWYRQAPGKERELVAAISRRGGSTFYADSVKGRFTISRDNAKNTVYLQMNSLKPEDTAVYYCAAADRYASDTGGYWGQGTQVTVSS ; polyreactivity (PSR sort gate) = high polyreactivity

* * *

- assay: yeast display, Sf9 membrane polyspecificity reagent, FACS + sequencing; frameworks hold sequencing errors

chain | polyreactivity (PSR sort gate)
QVQLVESGGGLVQAGGSLRLSCAGSGSSFAWNDMGWYRHAPGIERALVAAISTSDGSTYYADSVKGRFTISRDNAKNTVYLQMNSLNPEDTAVYYCAADVTRVFYGLYTGEYDYWGLGTQVTVSS | low polyreactivity
QVQLVESGGGLVQAGGSLRLSCAASGRTFVFNDMGWYRQAPGKERELVAAITKNGGSTYYADSVKGRFTISRDTAKNTVYLHMNSLKPEDTAVYYSNASFQYYDYWGQGTQVTVSS | low polyreactivity

* * *

- assay: yeast display, Sf9 membrane polyspecificity reagent, FACS + sequencing; frameworks hold sequencing errors
reported.metric: polyreactivity (PSR sort gate)

chain | polyreactivity (PSR sort gate)
QVQLVESGGGLVQAGGSLRLSCAASGIIFAYAMGWYRQAPGKERELVAAISGRDGSTYYADSVKGRFTISRDNAKNTVYLQMNSLKPEDTAVYYCNAVRGSYSWQMYYWGQGTQVTVSS | low polyreactivity
QVQLVESGGGLVQAGGSLRLSCAASGSTFPYYVMGWYRQAPGKERELVAAISGSGTRTYYADSVKGRFTISRDNAKNTVYLQMNSLKPEDTAVYYCAARKYPQGFDYWGQGTQVTVSS | low polyreactivity
HVQLVESGGGLVQAGGSLRLSCAASGSIFYGNTMGWYRQAPGKEREFVAAINKSDDSTYYADSVKGRFTISRDNAKNTVYLQMNSLKPEDTAVYYCWGPGTQVTVSS | low polyreactivity
QVQLVESGGGLVQAGGSLRLSCAASGSIFQGYAMGWYRQAPGKERELVAVITSRVGRTYYADSVKGRFTISRDNAKNTVYLQMNSLKPEDTAVYYCAAKLYGGWYRDFAASGMDYWGQGTQVTVSS | high polyreactivity
QVQLVESGGGLVQAGGSLRLSCAASGSTSWYNAMGWYRQAPGKESELVAAISKSGTSTHYADSVKGRFTISRDNAKNTVYIQMNSRKPEDTAVYYCNRVRYALRRFYGTAVGYWGQGTQVTVSS | low polyreactivity

Data point: QVQLVESGGGLVQAGGSLRLSCAASGFIITQYAMGWYSQEPGKERELVAAISGNGGRTYYADSVKGRFTISRDNAKYTVYLHLISLKPEDTAVYYCAVTYYWYGVRYDYWGQCTQVTVSS ; polyreactivity (PSR sort gate) = high polyreactivity

Data point: QVQLVESGGGLVQAGGSLRLSCAASGGIFVDNAMGWYRQAPGKERELVATITSTGSTNYADSVKGRFTISRDNAKNTVYLQMNSLKPEDTAVYYCNADGILQDYDYWGQGTQVTVSS ; polyreactivity (PSR sort gate) = low polyreactivity

Data point: QVQLVESGGGLVQAGGSLRLSCAASGSTFEGNAMGWYRQAPGKERELVAAITSGGSTNYADSVKGRFTISRDNAKNNVYLQMNSLKPEDTAVYYCAADTVSFSILYDYWGQGTQVTVSS ; polyreactivity (PSR sort gate) = low polyreactivity

Data point: QVQLVESGGGLVQAGGSLRLSCAASGFIFNINTMGWYRQAPGKERELVAAISGSGDSTYYADSVKGRFTISRDNAKNTVYLQMNSLKPEDTAVYYCNAGPWWYLHEYDYWGQGTQVTVSS ; polyreactivity (PSR sort gate) = low polyreactivity
